# Test details: In vitro cytotoxicity assay (CC50), Alamar Blue
# Format: cell-based
# Test conditions: human, HeLa cells, 10% Fetal Bovine Serum
Measured metric: CC50 at 72 h (µM)
Value expressed in µM; do not type the unit.

// CC50 at 72 h lookup, compound = COc1ccc(C2=C/C(=C/c3ccc(O)c(OC)c3)C(=O)O2)c(OC)c1 , result: 29.4

---

molecules and their reported MBIC
# Tested on: vancomycin-resistant Enterococcus faecalis strain (ATCC 51299)
# Test details: MBIC/MIC secondary assay
# Format: cell-based
# Test conditions: E. faecalis strain 51299
Please state the figure in µM; there is no need to write the unit.

CCOc1cc(/C=C2\SC(=S)N(c3ccc(F)cc3)C2=O)ccc1O [Compound 4]	12.5
CCOc1cc(/C=C2\SC(=S)N(c3cccnc3)C2=O)ccc1O [Compound 36]	12.5
CCOc1cc(/C=C2\SC(=S)N(c3cccc(C#N)c3)C2=O)ccc1O [Compound 34]	12.5
CCOc1cc(/C=C2\SC(=S)N(c3cccc(F)c3)C2=O)ccc1O [Compound 8]	25
CCOc1cc(/C=C2\SC(=S)N(c3ccc(F)nc3)C2=O)ccc1O [Compound 40]	6.3

Here's the next entry for you.
In plain terms, C=CCOc1cc(/C=C2\SC(=S)N(c3ccc(F)cc3)C2=O)ccc1O [Compound 29] has a documented MBIC of 12.5

Reference source: patent US20110098323A1
